- target under test: APE1 (WT) (Homo sapiens, UniProt P27695 1-318)
- Sequence (P27695 whole entry): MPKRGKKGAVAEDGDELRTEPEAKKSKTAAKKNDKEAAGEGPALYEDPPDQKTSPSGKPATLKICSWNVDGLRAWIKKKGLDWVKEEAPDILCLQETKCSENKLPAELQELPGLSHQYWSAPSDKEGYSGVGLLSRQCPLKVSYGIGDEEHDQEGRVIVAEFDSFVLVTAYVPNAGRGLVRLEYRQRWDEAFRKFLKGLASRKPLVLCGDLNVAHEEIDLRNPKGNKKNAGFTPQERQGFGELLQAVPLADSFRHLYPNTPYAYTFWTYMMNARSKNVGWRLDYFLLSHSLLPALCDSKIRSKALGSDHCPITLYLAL
- measurement notes: fluorescence anisotropy; 0 Mg2+, EDTA, 50 mM K+; 20 mM Tris pH 7.4, 50 mM KOAc (or 140 mM K+ / 50 mM Li+), 0, 1 or 10 mM Mg(OAc)2, 1 mM DTT, 22 °C, 100 nM FAM-DNA, APE1 0-5000 nM
- test conditions: protein: recombinant; tags: His (pET28HIS-hAPE1, Addgene 70757); label: 5' FAM; intramolecular parallel G4 in K+; unfolded in Li+
endpoint name: pKd
Bear in mind: pKd is minus log10 of a mol/L concentration; give just that figure.

Ask: # query: pKd of entry CGGGGCGGGCCGGGGGCGGGGT (structured_DNA) [VEGF-4]
Reply: 6.72
